tested on: Escherichia coli TOP10; experiment: shrunken log2 fold change of peptide-encoding DNA abundance (4.5 h post-induction vs induction); higher = less antimicrobial activity (less host growth inhibition); details: time post-induction: 4.5 h; library: site-saturation at positions 5, 18, 19, 20
Reported shrunken log2 fold change is given for each of the following sequences.
// keep it numeric: no unit symbol after the value

Incoming: Can you look up the measured shrunken log2 fold change of `RRIRSRPPRLPRPRPRPCEFPRP` for me?
Outgoing: -0.227

###

tested on: Escherichia coli TOP10; test: shrunken log2 fold change of peptide-encoding DNA abundance (4.5 h post-induction vs induction); higher = less antimicrobial activity (less host growth inhibition); conditions: time post-induction: 4.5 h; library: site-saturation at positions 5, 18, 19, 20;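 note: peptides expressed intracellularly from a pBAD plasmid library in pooled LB shake-flask culture, induced with 0.3% L-arabinose, DNA abundance read by NGS, three biological replicates, DESeq2 with apeglm shrinkage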
Reported shrunken log2 fold change is given for each of the following sequences.

// worked examples, shrunken log2 fold change included
residues: RRIRGRPPRLPRPRPRPRPWPRP
shrunken log2 fold change: 0.77
//
residues: RRIRYRPPRLPRPRPRPHFTPRP
shrunken log2 fold change: -0.817

Incoming: Can you look up the measured shrunken log2 fold change of `RRIRQRPPRLPRPRPRPWLTPRP` for me?
Outgoing: -0.13

Incoming: Now the same for `RRIRVRPPRLPRPRPRPMALPRP`
Outgoing: -0.169

Incoming: Now the same for `RRIRQRPPRLPRPRPRPIQWPRP`
Outgoing: 0.34

Incoming: Now the same for `RRIRLRPPRLPRPRPRPCIMPRP`
Outgoing: -0.0711

Incoming: Now the same for `RRIRERPPRLPRPRPRPYDLPRP`
Outgoing: -0.169
